Measured values drawn from patent US8846698B2 for this set.

# STUDY_TARGET: TRKA (Homo sapiens (Human), UniProt P04629)
# Sequence (P04629 441-796): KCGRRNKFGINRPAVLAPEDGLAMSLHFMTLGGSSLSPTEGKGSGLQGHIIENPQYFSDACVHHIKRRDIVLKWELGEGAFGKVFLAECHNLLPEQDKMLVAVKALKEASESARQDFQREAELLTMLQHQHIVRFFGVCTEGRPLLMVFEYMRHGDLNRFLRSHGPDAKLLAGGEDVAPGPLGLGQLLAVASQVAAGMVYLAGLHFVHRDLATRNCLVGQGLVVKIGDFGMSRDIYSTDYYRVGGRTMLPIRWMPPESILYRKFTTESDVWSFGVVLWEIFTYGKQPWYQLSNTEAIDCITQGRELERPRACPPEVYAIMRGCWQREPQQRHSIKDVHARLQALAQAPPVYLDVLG
# MEASUREMENT_PROTOCOL: Isolated TRK enzyme assay (HTRF KinEASE-TK), TRKA
# Assay type: biochemical
# DETAILS: read-out: Trka enzyme (IC50)
MEASURED_ENDPOINT: IC50

Look over these answered cases.
- COMPOUND: "CC(C)n1cc(C(=O)c2cncc(NC(=O)c3ncoc3C3CC3)c2)c2cncnc21 [Example 385]"
  MEASURED_ENDPOINT: "IC50"
  RESULT_VALUE: "0.0816 µM"
- COMPOUND: "C[C@H](CO)n1cc(C(=O)c2cncc(NC(=O)Cc3cccc(S(C)(=O)=O)c3)c2)c2cncnc21 [Example 209]"
  MEASURED_ENDPOINT: "IC50"
  RESULT_VALUE: "0.272 µM"
- COMPOUND: "CC1(n2cc(C(=O)c3cncc(NC(=O)Cc4ccc(C(F)(F)F)cc4)c3)c3cncnc32)COC1 [Example 571]"
  MEASURED_ENDPOINT: "IC50"
  RESULT_VALUE: "0.00292 µM"

Let us examine a further case.
Lab note: measured IC50 of O=C(Cc1ccc(C(F)(F)F)cc1)Nc1cncc(C(=O)c2cn(C3(CO)COC3)c3ncncc23)c1 [Example 300] was 0.0522 µM

====

# STUDY_TARGET: TRKB (Homo sapiens (Human))
# Sequence (Q16620 32-822 limits assumed): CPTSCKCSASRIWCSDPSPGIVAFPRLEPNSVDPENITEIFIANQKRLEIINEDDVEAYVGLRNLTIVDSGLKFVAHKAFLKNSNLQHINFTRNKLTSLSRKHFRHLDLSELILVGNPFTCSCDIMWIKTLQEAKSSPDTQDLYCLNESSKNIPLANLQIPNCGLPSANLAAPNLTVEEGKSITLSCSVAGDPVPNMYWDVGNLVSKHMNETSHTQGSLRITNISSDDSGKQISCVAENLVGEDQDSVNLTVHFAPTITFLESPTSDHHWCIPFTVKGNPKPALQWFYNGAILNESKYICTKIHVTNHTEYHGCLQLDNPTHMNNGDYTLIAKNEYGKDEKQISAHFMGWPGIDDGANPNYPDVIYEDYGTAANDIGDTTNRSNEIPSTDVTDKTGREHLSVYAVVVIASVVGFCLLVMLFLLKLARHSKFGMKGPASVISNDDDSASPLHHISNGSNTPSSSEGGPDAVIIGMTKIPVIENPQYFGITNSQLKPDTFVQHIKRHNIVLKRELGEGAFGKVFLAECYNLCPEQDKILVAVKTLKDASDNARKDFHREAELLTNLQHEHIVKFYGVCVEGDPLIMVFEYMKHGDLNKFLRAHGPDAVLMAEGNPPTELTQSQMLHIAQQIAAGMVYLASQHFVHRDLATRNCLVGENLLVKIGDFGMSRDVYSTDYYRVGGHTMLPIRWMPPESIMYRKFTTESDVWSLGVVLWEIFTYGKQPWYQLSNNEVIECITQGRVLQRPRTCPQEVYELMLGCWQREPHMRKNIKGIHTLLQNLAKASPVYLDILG
# MEASUREMENT_PROTOCOL: cell-based
# DETAILS: TrkB cell potency, TRKB PathHunter cell line
# Description: After the Detection Reagent addition, plates are covered and incubated at room temperature for 60 minutes. […] Test compound data are expressed as percentage inhibition defined by HPE and ZPE values for each plate. […] After reagent addition, plates are covered and incubated at room temperature for 60 minutes. Luminescence signal is read using an Envision. Test compound data are expressed as percentage inhibition defined by HPE and ZPE values for each plate. […]
Categories are assigned from the measured IC50 using these intervals: label 0 = under 4 nM, label 1 = from 4 nM up to 50 nM, label 2 = 50 nM and over

- MOLECULE: "C[C@H](CO)n1cc(C(=O)c2cncc(NC(=O)Cc3ccc(Cl)cc3)c2)c2cncnc21"
  STUDY_TARGET: "TRKB (Homo sapiens (Human))"
  CLASSIFICATION: "label 1"
- MOLECULE: "CC(CO)n1cc(C(=O)c2cncc(NC(=O)Cn3ccc(C(F)(F)F)n3)c2)c2cnc(N)nc21 (single isomer, unassigned) [Example 38]"
  STUDY_TARGET: "TRKB (Homo sapiens (Human))"
  CLASSIFICATION: "label 2"
- MOLECULE: "C[C@@H](CO)n1cc(C(=O)c2cncc(NC(=O)Cn3cc(C(F)(F)F)nn3)c2)c2cncnc21"
  STUDY_TARGET: "TRKB (Homo sapiens (Human))"
  CLASSIFICATION: "label 2"

Problem: Class for CC(C)(C)n1cc(C(=O)c2cncc(NC(=O)Cc3ccc(Cl)cn3)c2)c2cncnc21 ?
Result: label 0

Problem: Category of Cc1cc(C(F)(F)F)nn1CC(=O)Nc1cncc(C(=O)c2cn(C(C)(C)CO)c3nc(N)ncc23)c1 :
Result: label 1

Problem: # classify by IC50 band: Cc1cc(C(F)(F)F)nn1CC(=O)Nc1cncc(C(=O)c2cn([C@H](C)CO)c3ncncc23)c1
Result: label 1

Problem: Returns: class label. Input: CC(CO)n1cc(C(=O)c2cncc(NC(=O)Cc3ccc(F)cn3)c2)c2cnc(N)nc21 (single isomer, unassigned) [Example 40]
Result: label 2

Problem: # classify by IC50 band: C[C@@H](CO)n1cc(C(=O)c2cncc(NC(=O)Cc3ccc(Cl)cn3)c2)c2cncnc21
Result: label 1

Problem: Hi, small favor: classify CC(C)(CO)n1cc(C(=O)c2cncc(NC(=O)Cc3ccc(C(F)(F)F)cc3)c2)c2cnc(N)nc21 by its IC50 when you get a moment.
Result: label 0

Problem: Which of the defined bands does the recorded IC50 of CC(C)(CO)n1cc(C(=O)c2cncc(NC(=O)Cn3cc(C4CC4)cn3)c2)c2cncnc21 sit within?
Result: label 0

Problem: Which class is correct for the following molecule? C[C@H](CO)n1cc(C(=O)c2cncc(NC(=O)Cc3ccc(Cl)cn3)c2)c2cncnc21
Result: label 2

Problem: Could you place C[C@H](CO)n1cc(C(=O)c2cncc(NC(=O)Cn3cc(C4CC4)nn3)c2)c2cncnc21 in its proper category? Many thanks.
Result: label 2

Problem: Class (by measured IC50) for CC(C)(CO)n1cc(C(=O)c2cncc(NC(=O)Cc3ccc(C(F)(F)F)cc3)c2)c2cncnc21
Result: label 1
